Sourced from patent US20250019450A1

measuredTarget: T1, cyno IL-12RB2 with C-terminal HA tag, transiently expressed on HEK-293T cells (cyno, UniProt A0A2K5VNI7 24-860)
T1 construct: whole, on cells; also called cyno IL-12Rβ2
T1 sequence: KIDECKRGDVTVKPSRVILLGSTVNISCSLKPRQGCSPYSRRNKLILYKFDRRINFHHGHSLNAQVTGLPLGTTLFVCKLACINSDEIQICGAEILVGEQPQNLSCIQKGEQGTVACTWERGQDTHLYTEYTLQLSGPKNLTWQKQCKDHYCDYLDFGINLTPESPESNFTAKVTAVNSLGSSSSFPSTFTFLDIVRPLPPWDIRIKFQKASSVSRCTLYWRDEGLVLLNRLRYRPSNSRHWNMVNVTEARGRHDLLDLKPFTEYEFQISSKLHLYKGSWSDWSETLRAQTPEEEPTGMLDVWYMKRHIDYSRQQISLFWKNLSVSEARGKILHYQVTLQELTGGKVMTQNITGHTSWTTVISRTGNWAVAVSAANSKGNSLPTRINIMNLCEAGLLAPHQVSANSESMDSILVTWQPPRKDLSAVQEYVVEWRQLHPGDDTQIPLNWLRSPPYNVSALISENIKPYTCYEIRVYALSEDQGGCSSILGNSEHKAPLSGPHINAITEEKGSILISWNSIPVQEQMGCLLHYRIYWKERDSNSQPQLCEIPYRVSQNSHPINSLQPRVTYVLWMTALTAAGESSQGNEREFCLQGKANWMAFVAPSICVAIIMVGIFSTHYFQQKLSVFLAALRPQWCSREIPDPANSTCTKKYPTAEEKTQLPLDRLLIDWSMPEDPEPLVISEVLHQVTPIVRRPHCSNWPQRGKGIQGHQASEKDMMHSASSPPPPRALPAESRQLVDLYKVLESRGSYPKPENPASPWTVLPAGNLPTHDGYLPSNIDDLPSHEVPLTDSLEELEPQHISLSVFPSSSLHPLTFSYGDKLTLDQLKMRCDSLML
assayExplanation: FACS, periplasmic extract, HEK-293T
valueType: FOB
A complete answer gives the number followed by the unit.

// solved cases for FOB follow
binder	FOB
VHH222B2 (VHH) VHH: QVQLVESGGGLVQAGGSLRLSCAASGRIFSAYRMGWFRQAPGKEREFVAGITWRGQTTYYAASVKGRFTISKDNAKKTVYLQMNSLKPEETAVYYCAVETNGLGRWDRPSEYDYWGQGTQVTVSS	1.28 fold
VHH229B2 (VHH) VHH: QVQLVESGGGLVQAGGSLRLSCAASGRTFSSYAMGWFRQAPGKEREFVSAISWNGGSRYYVESVEGRFTISRDNAKNTVYLQMNSLKPEDTAVYYCAASRIYTNYVARSYEYDDWGQGTQVTVSS	1 fold
VHH216B2 (VHH) VHH: QVQLVESGGGLVQPGGSLRLSCATSEHTFGTYRMGWFRQAPGKEREFVAGISWTGQTTYYAASVKGRFAISKDNAKNTVYLQMNTLKSDDTAVYYCAVETNNLGRWDRPSEYDYWGQGTQVTVSS	0.98 fold

FOB reported for this binder VHH93B2 (VHH) VHH: QVQLVESGGGLVQPGGSLRLSCAASGFTFEPYDMSWFRQAPGKGPEWVSAIDKGGGAGATYYADSVKGRFTISRDNAKKTLYLQMKSLKPEDTAVYYCAITAGPYSDSTPRVAYRGEGTQVTVSS : 1.35 fold
